- assaySummary: recombinant UMI read abundance after kanamycin selection (control-corrected) (log10(CPM+1)); higher = more efficient recombination; extreme values may be limits of the assay; sequences stand for … in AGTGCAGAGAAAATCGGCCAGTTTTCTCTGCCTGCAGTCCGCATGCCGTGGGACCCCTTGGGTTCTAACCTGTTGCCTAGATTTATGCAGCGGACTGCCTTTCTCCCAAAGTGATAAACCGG…AGGTTGGTTTCACT; site = the 11-nt donor;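 note: IS621 bridge recombinase in Escherichia coli cells against a fixed T5 target plasmid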
property: recombinant UMI read abundance (log10)

Check out these entries, answers already filled in.
For the sequence AATGTTACATGGACCGGTTTTCCCGGTAATCCGTATTTGCT (site AATGTAACTAG) , give its measured recombinant UMI read abundance (log10) value. 1.05

For the sequence CTTGAAACATGGACCGGTTTTCCCGGTAATCCGTATTTGCA (site CTTGAAACTTG) , give its measured recombinant UMI read abundance (log10) value. 2.07

For the sequence CTCTTCTCATGGACCGGTTTTCCCGGTAATCCGTATTTGGG (site CACTTCTCTCC) , give its measured recombinant UMI read abundance (log10) value. 0

For the sequence TACTTGCCATGGACCGGTTTTCCCGGTAATCCGTATTTGCT (site TACTTGACTAG) , give its measured recombinant UMI read abundance (log10) value. 0.00966

For the sequence CGGGACCCATGGACCGGTTTTCCCGGTAATCCGTATTTGAT (site CGGGAACCTAT) , give its measured recombinant UMI read abundance (log10) value. 0.00853

Next:
For the sequence TTATGCACATGGACCGGTTTTCCCGGTAATCCGTATTTGGC (site TTATGCACTGC) , give its measured recombinant UMI read abundance (log10) value. 1.93

For the sequence CCAGGTCCATGGACCGGTTTTCCCGGTAATCCGTATTTGAT (site CCAGGTCCTAT) , give its measured recombinant UMI read abundance (log10) value. 0.341

For the sequence CTATTACCATGGACCGGTTTTCCCGGTAATCCGTATTTGAC (site CTATTACCTGT) , give its measured recombinant UMI read abundance (log10) value. 0

For the sequence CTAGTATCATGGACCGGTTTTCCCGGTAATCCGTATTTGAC (site CTAGGACCTGT) , give its measured recombinant UMI read abundance (log10) value. 0

Data provenance: the supplement of paper PMC11208160
